# Test System: Phospholipase C (Bacillus cereus)
# Procedure Summary: Inhibition of recombinant Bacillus cereus N-terminal His6-tagged full length PC-PLC 3C Protease cleavage site expressed in Escherichia coli BL21(DE3) cells at 10 uM using phosphatidylcholine as substrate by amplex red assay relative to control
Parameter: inhibition (%)

Check out these entries, answers already filled in.
O=C(O)c1cc(NCc2ccccc2Cl)ccc1N1CCOCC1    89
COc1cc(C2NC(C(=O)O)Cc3c2[nH]c2ccccc32)cc(OC)c1O (stereo unspecified)    60
O=C(O)C1Cc2c([nH]c3ccccc23)C(c2ccc(O)c(O)c2)N1 (stereo unspecified)    75
COc1cccc(C(=O)Nc2ccc(O)cc2C(=O)O)c1    47

P = O=C(O)c1cc(NCc2ccc(Cl)cc2Cl)ccc1N1CCOCC1
Q = O=C(O)C1Cc2c([nH]c3ccccc23)C(c2ccc(Cl)cc2Cl)N1 (stereo unspecified)
Query block: Of the two listed items, P and Q , which carries the larger inhibition figure? Response format: the label of the selected entry.
Result block: P

* * *

# Test System: Phospholipase C (Bacillus cereus) (UniProt P09598)
# Sequence (P09598 whole entry, looked up): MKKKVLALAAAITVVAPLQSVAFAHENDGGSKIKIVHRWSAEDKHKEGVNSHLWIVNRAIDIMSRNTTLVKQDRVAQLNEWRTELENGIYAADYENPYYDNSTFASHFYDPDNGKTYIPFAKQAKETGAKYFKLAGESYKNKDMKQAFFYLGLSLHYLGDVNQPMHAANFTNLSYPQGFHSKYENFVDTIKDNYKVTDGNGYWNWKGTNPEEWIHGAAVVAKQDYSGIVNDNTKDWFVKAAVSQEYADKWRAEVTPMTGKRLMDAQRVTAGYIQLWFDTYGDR
# Procedure Summary: Inhibition of recombinant Bacillus cereus N-terminal His6-tagged full length PC-PLC 3C Protease cleavage site expressed in Escherichia coli BL21(DE3) cells at 10 uM using phosphatidylcholine as substrate by amplex red assay relative to control
The source made the active and inactive calls. No cut-off for these calls is given here.
Parameter: inhibition

Check out these entries, answers already filled in.
CN(C)c1ccc(C2NC(C(=O)O)Cc3c2[nH]c2ccccc32)cc1 (configuration not stated)    43%
O=C(O)c1cc(NCc2cccc(Cl)c2)ccc1N1CCOCC1    89%
O=C(O)C1Cc2c([nH]c3ccccc23)C(c2ccc(C(F)(F)F)cc2)N1 (configuration not stated)    37%
CN1CCN(c2ccc(NCc3cccc(Br)c3)cc2C(=O)O)CC1    inactive

Query block: Notebook entry, Phospholipase C (Bacillus cereus) (UniProt P09598) assay: inhibition of O=C(O)c1ccccc1N1CCOCC1 = ?
Result block: inactive

Query block: Notebook entry, Phospholipase C (Bacillus cereus) (UniProt P09598) assay: inhibition of Cc1[nH]c2ccc(C(=O)O)cc2c1CC(=O)O = ?
Result block: 60%

Query block: Notebook entry, Phospholipase C (Bacillus cereus) (UniProt P09598) assay: inhibition of CSc1ccc(CNc2ccc(N3CCOCC3)c(C(=O)O)c2)cc1 = ?
Result block: inactive

Query block: Notebook entry, Phospholipase C (Bacillus cereus) (UniProt P09598) assay: inhibition of O=C(O)c1cc(NCc2ccccc2)ccc1N1CCOCC1 = ?
Result block: 67%

Query block: Notebook entry, Phospholipase C (Bacillus cereus) (UniProt P09598) assay: inhibition of O=C(O)c1cc(NCc2cccc(Br)c2)ccc1N1CCOCC1 = ?
Result block: 80%

Query block: Notebook entry, Phospholipase C (Bacillus cereus) (UniProt P09598) assay: inhibition of O=C(O)c1cc(NCc2ccccc2C(F)(F)F)ccc1N1CCOCC1 = ?
Result block: inactive

Query block: Notebook entry, Phospholipase C (Bacillus cereus) (UniProt P09598) assay: inhibition of O=C(O)c1cccc(NS(=O)(=O)c2ccc(C3CCCCC3)cc2)c1 = ?
Result block: 25%

Query block: Notebook entry, Phospholipase C (Bacillus cereus) (UniProt P09598) assay: inhibition of Cc1[nH]c2ccc(Cl)cc2c1CC(=O)O = ?
Result block: 65%

Source: ChEMBL document CHEMBL4706483
